Origin of values: ChEMBL document CHEMBL6120971

Target: von Hippel-Lindau disease tumor suppressor/Hepatocyte growth factor receptor (Homo sapiens, UniProt P08581+P40337)
Sequence (P40337 whole entry partner): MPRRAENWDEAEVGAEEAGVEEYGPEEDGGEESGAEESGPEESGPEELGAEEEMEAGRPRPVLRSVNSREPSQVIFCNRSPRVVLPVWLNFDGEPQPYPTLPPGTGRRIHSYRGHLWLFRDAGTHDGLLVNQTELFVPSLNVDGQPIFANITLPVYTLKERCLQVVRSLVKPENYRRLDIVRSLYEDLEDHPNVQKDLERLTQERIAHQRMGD
Sequence (P08581 25-1390 limits assumed): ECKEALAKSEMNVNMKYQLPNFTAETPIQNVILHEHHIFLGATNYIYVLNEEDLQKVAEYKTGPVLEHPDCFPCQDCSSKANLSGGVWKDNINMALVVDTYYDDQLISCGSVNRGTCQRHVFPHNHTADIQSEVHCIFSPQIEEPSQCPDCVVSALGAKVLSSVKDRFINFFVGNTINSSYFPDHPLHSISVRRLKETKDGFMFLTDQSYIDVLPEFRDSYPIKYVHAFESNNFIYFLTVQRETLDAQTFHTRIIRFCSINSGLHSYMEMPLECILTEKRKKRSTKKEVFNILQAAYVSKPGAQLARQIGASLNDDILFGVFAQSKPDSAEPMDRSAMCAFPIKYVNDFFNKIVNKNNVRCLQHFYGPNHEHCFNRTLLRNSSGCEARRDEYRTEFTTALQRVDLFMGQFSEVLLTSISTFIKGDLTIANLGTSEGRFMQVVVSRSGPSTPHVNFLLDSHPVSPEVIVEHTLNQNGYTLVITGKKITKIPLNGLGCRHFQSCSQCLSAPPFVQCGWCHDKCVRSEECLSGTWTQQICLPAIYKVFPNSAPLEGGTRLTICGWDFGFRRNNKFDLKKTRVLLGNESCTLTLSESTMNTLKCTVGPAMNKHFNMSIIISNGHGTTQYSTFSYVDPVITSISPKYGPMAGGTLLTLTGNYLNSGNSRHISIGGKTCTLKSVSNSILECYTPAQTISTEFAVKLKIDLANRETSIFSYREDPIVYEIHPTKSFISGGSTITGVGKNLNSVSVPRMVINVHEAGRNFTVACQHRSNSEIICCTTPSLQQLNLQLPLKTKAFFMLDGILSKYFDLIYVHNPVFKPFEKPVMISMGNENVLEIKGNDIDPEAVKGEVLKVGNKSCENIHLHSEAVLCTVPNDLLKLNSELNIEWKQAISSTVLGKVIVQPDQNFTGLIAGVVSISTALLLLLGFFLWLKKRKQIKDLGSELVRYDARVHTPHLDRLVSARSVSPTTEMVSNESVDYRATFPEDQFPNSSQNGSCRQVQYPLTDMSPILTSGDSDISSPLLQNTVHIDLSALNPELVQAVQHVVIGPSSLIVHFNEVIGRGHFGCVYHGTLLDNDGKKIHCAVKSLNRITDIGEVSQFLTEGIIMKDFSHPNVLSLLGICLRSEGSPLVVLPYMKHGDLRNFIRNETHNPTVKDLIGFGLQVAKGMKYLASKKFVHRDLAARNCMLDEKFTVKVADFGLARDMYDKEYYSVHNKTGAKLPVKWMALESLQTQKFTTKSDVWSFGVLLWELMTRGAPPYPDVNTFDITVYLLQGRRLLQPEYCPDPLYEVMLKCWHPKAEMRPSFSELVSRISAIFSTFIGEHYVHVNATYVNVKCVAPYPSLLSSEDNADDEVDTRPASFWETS
Experiment: PROTAC activity at VHL/c-MET in human MKN-45 cells assessed as induction of c-MET degradation by measuring residual activity at 100 nM incubated for 24 hrs by Western blot analysis (reference value: 100 %)
Type: cell-based
measured_property: Activity (%)

INPUT: Quickly give me recorded Activity for Cc1ncsc1-c1ccc([C@H](C)NC(=O)[C@@H]2C[C@@H](O)CN2C(=O)[C@@H](NC(=O)CCCCCCC(=O)N2CCC(COc3cnc(-c4cccc(Cn5nc(-c6cccc(C#N)c6)ccc5=O)c4)nc3)CC2)C(C)(C)C)cc1
OUTPUT: 64

[A] Cc1ncsc1-c1ccc([C@H](C)NC(=O)[C@@H]2C[C@@H](O)CN2C(=O)[C@@H](NC(=O)CN2CCN(CCCCCCNC(=O)c3ccc(-c4cnc5ncc(Cc6ccc7ncccc7c6)n5n4)cc3F)CC2)C(C)(C)C)cc1
[B] Cc1ncsc1-c1ccc([C@H](C)NC(=O)[C@@H]2C[C@@H](O)CN2C(=O)[C@@H](NC(=O)CN2CCN(CC(=O)N3CCC(COc4cnc(-c5cccc(Cn6nc(-c7cccc(C#N)c7)ccc6=O)c5)nc4)CC3)CC2)C(C)(C)C)cc1
INPUT: From the recorded data, which exceeds the other in Activity: A or B ? Lab log: write the label of the selected item as the result.
OUTPUT: A
(A: 79%, B: 40%)
